target-entity: T1, AAV5
T1 construct: also called adeno-associated virus serotype 5
test-summary: SPR, AAV on CM5 chip;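 also: surface plasmon resonance with AAV amine-coupled to the chip as ligand, nanobodies injected as analyte over a concentration series, rate constants and affinity fitted from binding curves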
readout-name: pKd
// pKd here means minus log10 of the molar concentration (mol/L)

Query: Quote pKd reported for A4-050 (VHH) VHH: VQLQESGGGLVQPGGSLRLSCAASGSSFVINTMGWYRQAPGKQRELVAAVTRGGSTNYADSVKGRFTISRDNAKNTVYLQMNSLRPEDTAVYYCHVDEVRQSSWTTSNLWGQGTQVTVSS please.
Reply: 8.15

Query: Quote pKd reported for A4-010 (VHH) VHH: VQLQESGGGLVQAGGSLRLSCAASGSIFSINSMGWYRQAPGKQRELVATVTRGGNTNYADSVKGRFTISRDNAKNTVYLQMNSLRPEDTAVYYCHVDEVRESSWTTSNLWGQGTQVTVSS please.
Reply: 6.57

Query: Quote pKd reported for A4-004 (VHH) VHH: VQLQESGGGLVQPGGSLRLSCAASGSRFSINTMGWYRQAPGKQRELVAAVTRGGSTNYAGSVKGRFTISRDNAKNTVYLQMNSLRPEDTAVYYCHIDEVRQSSWTTSNIWGQGTQVTVSS please.
Reply: 7.43

Query: Quote pKd reported for A4-003 (VHH) VHH: VQLQESGGGLVQPGGSLRLSCVASGRSFSINTMGWYRQAPGKQRELVAAVTRGGSTNYAGSVKGRFTISRDNAKNTVYLQMNSLRPEDTAVYYCHIDEVRQSSWTTSNIWGQGTQVTVSS please.
Reply: 8.08
